# Tested on: Vero E6/TMPRSS2 cells
# Assay type: cell-based
# particulars: Vero E6/TMPRSS2 cells, 72 h, microscope; twofold dilutions with 10 mM as highest concentration
assay-endpoint: Highest non-toxic concentration (mM)
Response body: numeric value in mM, unit text excluded.

Query: Look at this compound and give its reported Highest non-toxic concentration. COC[C@H]1O[C@@H]2O[C@H]3[C@H](OC)[C@@H](OC)[C@@H](O[C@H]4[C@H](OC)[C@@H](OC)[C@@H](O[C@H]5[C@H](OC)[C@@H](OC)[C@@H](O[C@H]6[C@H](OC)[C@@H](OC)[C@@H](O[C@H]7[C@H](OC)[C@@H](OC)[C@@H](O[C@H]8[C@H](OC)[C@@H](OC)[C@@H](O[C@H]1[C@H](OC)[C@H]2OC)O[C@@H]8COC)O[C@@H]7COC)O[C@@H]6COC)O[C@@H]5COC)O[C@@H]4COC)O[C@@H]3COC
Reply: 1.25

Query: Look at this compound and give its reported Highest non-toxic concentration. COC[C@H]1O[C@@H]2O[C@H]3[C@H](O)[C@@H](OC)[C@@H](O[C@H]4[C@H](O)[C@@H](OC)[C@@H](O[C@H]5[C@H](O)[C@@H](OC)[C@@H](O[C@H]6[C@H](O)[C@@H](OC)[C@@H](O[C@H]7[C@H](O)[C@@H](OC)[C@@H](O[C@H]1[C@H](O)[C@H]2OC)O[C@@H]7COC)O[C@@H]6COC)O[C@@H]5COC)O[C@@H]4COC)O[C@@H]3COC
Reply: 2.50
